Biological target: human ether-à-go-go-related gene (hERG) potassium channel (human)
Assay: primary screen, population patch clamp on CHO cells stably expressing hERG; higher = less effect of the substance
Among all 310,000 compounds or so, about 14,000 (4.5%) showed an effect of 50% or more. The effect is printed as a negative number. Many of the other results were omitted from the sample, so strong results are more common in it than they were.
measuredAttribute: hERG current change (%, negative = inhibition) at 10uM (%)
Numbers only; they are read as %.

compound	valueMeasured
Cc1cc(C(=O)CN2C(=O)NC3(CCCCC3)C2=O)c(C)n1C	-10.3
COCCn1c(C)cc(C(=O)CN2C(=O)NC3(CCCCCCC3)C2=O)c1C	-59
Cc1cc(C(=O)CN2C(=O)NC3(CCCCC3)C2=O)c(C)n1-c1ccc2c(c1)OCO2	-56.4

**Q:** Give recorded hERG current change (%, negative = inhibition) at 10uM with human ether-à-go-go-related gene (hERG) potassium channel (human) for the following compound: CCc1cc2c(NCCO)ncnc2s1
**A:** 14.3

====

Each record here notes measured hERG current change (%, negative = inhibition) at 10uM.
Molecular target: human ether-à-go-go-related gene (hERG) potassium channel (human, UniProt Q12809)
Sequence (Q12809 whole entry, looked up): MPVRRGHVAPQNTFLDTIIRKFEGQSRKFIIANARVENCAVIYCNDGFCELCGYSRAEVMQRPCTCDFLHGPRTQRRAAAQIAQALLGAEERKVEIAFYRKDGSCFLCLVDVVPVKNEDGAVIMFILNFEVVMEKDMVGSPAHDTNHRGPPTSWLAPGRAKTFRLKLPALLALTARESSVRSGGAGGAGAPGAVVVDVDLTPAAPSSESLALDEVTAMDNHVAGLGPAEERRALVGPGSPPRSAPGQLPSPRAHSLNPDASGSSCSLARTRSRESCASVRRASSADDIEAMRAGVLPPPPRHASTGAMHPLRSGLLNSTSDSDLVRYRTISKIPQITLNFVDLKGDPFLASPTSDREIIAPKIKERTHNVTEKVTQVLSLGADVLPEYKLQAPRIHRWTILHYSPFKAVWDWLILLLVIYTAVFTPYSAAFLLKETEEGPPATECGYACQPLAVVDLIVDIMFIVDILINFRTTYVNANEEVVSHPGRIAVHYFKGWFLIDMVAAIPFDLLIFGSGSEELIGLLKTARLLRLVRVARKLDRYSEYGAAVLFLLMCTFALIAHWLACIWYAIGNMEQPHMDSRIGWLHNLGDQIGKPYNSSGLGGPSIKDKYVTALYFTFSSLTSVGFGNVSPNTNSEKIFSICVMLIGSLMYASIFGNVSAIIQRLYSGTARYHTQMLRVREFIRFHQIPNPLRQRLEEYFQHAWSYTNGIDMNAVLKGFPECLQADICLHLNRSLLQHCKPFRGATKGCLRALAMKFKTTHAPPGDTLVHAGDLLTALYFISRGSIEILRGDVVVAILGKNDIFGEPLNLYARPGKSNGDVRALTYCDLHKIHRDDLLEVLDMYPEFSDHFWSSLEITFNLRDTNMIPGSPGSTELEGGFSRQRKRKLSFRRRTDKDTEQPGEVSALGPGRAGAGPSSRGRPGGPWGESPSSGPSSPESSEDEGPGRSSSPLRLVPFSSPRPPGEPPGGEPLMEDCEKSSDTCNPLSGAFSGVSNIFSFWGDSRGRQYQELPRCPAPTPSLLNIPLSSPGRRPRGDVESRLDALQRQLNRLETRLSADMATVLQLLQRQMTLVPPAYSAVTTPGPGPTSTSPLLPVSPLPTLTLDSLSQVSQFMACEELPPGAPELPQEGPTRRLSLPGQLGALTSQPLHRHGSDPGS
Experiment: primary screen, population patch clamp on CHO cells stably expressing hERG; higher = less effect of the substance
The whole screen tested about 310,000 compounds, of which about 14,000 (4.5%) showed an effect of 50% or more. The effect is printed as a negative number. This is one part of a sample in which strong results are shown more often than they occur.
Report only the number, with the unit % understood.

**Q:** Any idea what hERG current change (%, negative = inhibition) at 10uM came out for CCOc1ccc(S(=O)(=O)n2nnc3ccccc32)cc1C on human ether-à-go-go-related gene (hERG) potassium channel (human, UniProt Q12809)?
**A:** 14.6

**Q:** human ether-à-go-go-related gene (hERG) potassium channel (human, UniProt Q12809) / hERG current change (%, negative = inhibition) at 10uM / COc1cccc(CNC(=O)Cc2c(C(=O)O)[nH]c3ccccc23)c1 : value?
**A:** 8.83

**Q:** Requested read-out hERG current change (%, negative = inhibition) at 10uM, target or system human ether-à-go-go-related gene (hERG) potassium channel (human, UniProt Q12809), entry COc1ccc(C(=O)COC(=O)/C=C/c2ccc(S(=O)(=O)Nc3cccc(S(N)(=O)=O)c3)cc2)cc1
**A:** 4.88

**Q:** Missing value: hERG current change (%, negative = inhibition) at 10uM, human ether-à-go-go-related gene (hERG) potassium channel (human, UniProt Q12809), entry CCOC(=O)c1ccc(NS(=O)(=O)c2cc3c4c(c2)CCN4C(=O)CC3)cc1 . Fill in?
**A:** -9.74

**Q:** Fill in the recorded hERG current change (%, negative = inhibition) at 10uM for this compound, with human ether-à-go-go-related gene (hERG) potassium channel (human, UniProt Q12809) as test system: O=C(Cn1cccc1C(=O)c1ccccc1)NCc1ccc(Cl)cc1
**A:** 18.7

====

Target: human ether-à-go-go-related gene (hERG) potassium channel (human);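 further: peak tail current of the secondary pulse compared with the same well before compound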
Assay: primary screen, population patch clamp on CHO cells stably expressing hERG; higher = less effect of the substance
The campaign covered roughly 310,000 compounds. About 14,000 (4.5%) showed an effect of 50% or more. Effects have a minus sign here. The full list was thinned out, with strong results kept by preference.
measuredAttribute: hERG current change (%, negative = inhibition) at 10uM (%)
Output spec: scalar in %, unitless text.

Below are worked cases with known answers.
compound	valueMeasured
CC(OC(=O)c1ccc(-c2ccc(O)cc2)cc1)C(=O)NC1CCCCC1C (stereo not drawn)	-6.35
CN(C)CCCN(C(=O)c1ccco1)c1nc2ccc(F)cc2s1.Cl	-70.5
O=C(Nc1ccc(S(=O)(=O)Nc2ncccn2)cc1)c1cncc(Br)c1	10.6

**Q:** If you can, please state the reported hERG current change (%, negative = inhibition) at 10uM value of Clc1ccccc1OCCN1CCC(Cc2ccccc2)CC1.O=C(O)C(=O)O .
**A:** -73.4

**Q:** GET /values?readout=hERG current change (%, negative = inhibition) at 10uM&item= N#Cc1ccc(OCC(=O)OCC(=O)Nc2ccc(N3CCOCC3)cc2)cc1
**A:** -15.3

**Q:** Which hERG current change (%, negative = inhibition) at 10uM is reported for this compound? N#Cc1ccccc1OCc1nnc(-c2ccccc2Br)o1
**A:** 14.1

**Q:** I have this compound here, CCC(=O)N1CCN(c2ccccc2NC(=O)c2ccc([N+](=O)[O-])o2)CC1 , and I need its recorded hERG current change (%, negative = inhibition) at 10uM.
**A:** -69

====

Target: human ether-à-go-go-related gene (hERG) potassium channel (human, UniProt Q12809);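 further: peak tail current of the secondary pulse compared with the same well before compound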
Assay: primary screen, population patch clamp on CHO cells stably expressing hERG; higher = less effect of the substance
In all, about 310,000 compounds went through this assay and about 14,000 (4.5%) showed an effect of 50% or more. The effect is printed as a negative number. Only a selection was taken, and strong results are over-represented in it overall.
measuredAttribute: hERG current change (%, negative = inhibition) at 10uM (%)
Only the number, expressed in %, is required.

compound	targetOfAssay	valueMeasured
CCC1(C)Cc2c(sc3c2c(=O)n(-c2ccccc2)c(=O)n3C)CO1 (stereo not drawn)	human ether-à-go-go-related gene (hERG) potassium channel (human, UniProt Q12809)	5.26
CN1CCc2nc(SCC(=O)Nc3cccc(F)c3)c(C#N)c(-c3cccs3)c2C1	human ether-à-go-go-related gene (hERG) potassium channel (human, UniProt Q12809)	-62.3
CCN(c1ccccc1)S(=O)(=O)c1ccc(Cl)c(NC(=O)COC(=O)c2ccc(O)cc2)c1	human ether-à-go-go-related gene (hERG) potassium channel (human, UniProt Q12809)	6.44
Cc1ccc(CCNC(=O)c2nc(CS(=O)(=O)c3ccc(Cl)cc3)no2)cc1	human ether-à-go-go-related gene (hERG) potassium channel (human, UniProt Q12809)	31.6
COc1cccc(N2CCN(S(=O)(=O)c3ccc(-n4cnnn4)cc3)CC2)c1	human ether-à-go-go-related gene (hERG) potassium channel (human, UniProt Q12809)	16.6

Attention now turns to another entry.
**Q:** Return reported hERG current change (%, negative = inhibition) at 10uM; argument: CN1CCc2nc(N)c(C#N)c(-c3ccccc3)c2C1
**A:** -7.5

====

Target: human ether-à-go-go-related gene (hERG) potassium channel (human);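 further: peak tail current of the secondary pulse compared with the same well before compound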
Test: primary screen, population patch clamp on CHO cells stably expressing hERG; higher = less effect of the substance
Out of some 310,000 compounds screened, about 14,000 (4.5%) showed an effect of 50% or more. The effect is printed as a negative number. The sample holds strong results, similar compounds and a random draw of the others, so the mix is not that of the screen.
measuredAttribute: hERG current change (%, negative = inhibition) at 10uM (%)
Reply with just the number (in %).

Sample records with hERG current change (%, negative = inhibition) at 10uM:
compound	targetOfAssay	valueMeasured
NC(=O)c1ccc(NC(=O)CCCc2nc(-c3ccccc3Cl)no2)cc1	human ether-à-go-go-related gene (hERG) potassium channel (human)	18.4
Cc1cccc(C(=O)NNC(=O)c2ccccc2-n2cccc2)c1	human ether-à-go-go-related gene (hERG) potassium channel (human)	11.7
Cc1noc(NS(=O)(=O)c2ccc(N3CC(O)=C(c4ccccc4)C3=N)cc2)c1C	human ether-à-go-go-related gene (hERG) potassium channel (human)	20.5
Cc1ccc(-n2ncc3c(NCCCN4CCOCC4)ncnc32)c(C)c1	human ether-à-go-go-related gene (hERG) potassium channel (human)	-10.3
Nc1nc(CSCCO)nc(Nc2ccc(F)cc2)n1	human ether-à-go-go-related gene (hERG) potassium channel (human)	16.1
COc1ccc(CCN2C(=O)CC(Cc3ccccc3)C2=O)cc1OC (stereo not shown)	human ether-à-go-go-related gene (hERG) potassium channel (human)	-17.2
Nc1nc(CN2CCCCCC2)nc(Nc2ccc(F)cc2)n1	human ether-à-go-go-related gene (hERG) potassium channel (human)	-70.8
CCOC(=O)[C@H]1[C@H]2COc3ccc(Cl)cc3[C@@H]2N2C(=O)c3cc(C)ccc3NC(=O)[C@@]12C	human ether-à-go-go-related gene (hERG) potassium channel (human)	5.63
Cc1ccc(Nc2nc(N)nc(CCl)n2)cc1	human ether-à-go-go-related gene (hERG) potassium channel (human)	1.76

Let us move to another entry and its hERG current change (%, negative = inhibition) at 10uM.
**Q:** Requested read-out: hERG current change (%, negative = inhibition) at 10uM. Entry: Cc1ccc(Nc2nc(N)nc(CN3CCCCCC3)n2)cc1
**A:** -72.1

====

Biological target: human ether-à-go-go-related gene (hERG) potassium channel (human, UniProt Q12809);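 further: peak tail current of the secondary pulse compared with the same well before compound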
Assay: primary screen, population patch clamp on CHO cells stably expressing hERG; higher = less effect of the substance
Description: Briefly, Chinese hamster ovary (CHO) cells stably expressing the hERG channel were dislodged from tissue culture flasks and dispensed into PPC plates. […] During the recording, background leak currents were estimated by a 100 ms step to -80 mV from an initial holding potential of -70 mV and subtracted from the subsequent current measurement. The campaign was conducted in two phases using slight differences in recording protocol. […]
About 14,000 (4.5%) of roughly 310,000 compounds showed an effect of 50% or more. Effects have a minus sign here. For the sample, strong results were picked, then their nearest neighbours and some compounds at random.
This section presents compounds with their documented hERG current change (%, negative = inhibition) at 10uM values.
Returns: string containing the number followed by the unit.

compound	targetOfAssay	valueMeasured
O=C(C1COc2ccccc2O1)N1CCN(c2ccc(F)cc2)CC1 (stereo not shown)	human ether-à-go-go-related gene (hERG) potassium channel (human, UniProt Q12809)	-40.7%
O=C(CSc1nc(-c2ccccc2)cc(=O)[nH]1)Nc1ccccc1	human ether-à-go-go-related gene (hERG) potassium channel (human, UniProt Q12809)	18%
O=C(CN1CCN(C(=O)C2COc3ccccc3O2)CC1)Nc1ccccc1 (stereo not shown)	human ether-à-go-go-related gene (hERG) potassium channel (human, UniProt Q12809)	-66.2%
Cc1ccc(NN2C(=O)C=CC2=O)cc1	human ether-à-go-go-related gene (hERG) potassium channel (human, UniProt Q12809)	0.632%
c1ccc(CCNc2nc(-c3ccncc3)nc3ccccc23)cc1	human ether-à-go-go-related gene (hERG) potassium channel (human, UniProt Q12809)	3.71%
Cl.c1ccc(-c2nc(NCc3ccco3)c3ccccc3n2)cc1	human ether-à-go-go-related gene (hERG) potassium channel (human, UniProt Q12809)	-33.4%
CCN1CCN(C(=O)C2COc3ccccc3O2)CC1 (stereo not shown)	human ether-à-go-go-related gene (hERG) potassium channel (human, UniProt Q12809)	-7.48%
CC(C)N(C(=O)CN1CCN(C(=O)C2COc3ccccc3O2)CC1)C(C)C (stereo not shown)	human ether-à-go-go-related gene (hERG) potassium channel (human, UniProt Q12809)	-0.817%
c1ccc(-c2nc(NCC3CCCO3)c3ccccc3n2)nc1 (stereo not shown)	human ether-à-go-go-related gene (hERG) potassium channel (human, UniProt Q12809)	-23.3%

Proceeding to the next compound to report its hERG current change (%, negative = inhibition) at 10uM.
**Q:** Field request: hERG current change (%, negative = inhibition) at 10uM | item: O=C(CN1CCN(C(=O)C2COc3ccccc3O2)CC1)Nc1ccc(F)cc1 (stereo not shown)
**A:** -75.7%
